assay: Biodistribution in HEK293-hsst5+ tumor-bearing mice; format: in vivo; conditions: mouse, stomach, iv, 10 pmol, total radioactivity; HEK293-hsst5+ tumor SCID mice, 4 h pi; mean ± SD; read-out: Stomach uptake
test readout: tissue uptake at 4 h (%ID/g)

{"molecule": "C[C@H](NC(=O)CN1CCN(CC(=O)O)CCN(CC(=O)O)CCN(CC(=O)O)CC1)C(=O)NCC(=O)N[C@H]1CSSC[C@@H](C(=O)O)NC(=O)[C@H](CO)NC(=O)[C@H]([C@@H](C)O)NC(=O)[C@H](Cc2ccccc2)NC(=O)[C@H]([C@@H](C)O)NC(=O)[C@H](CCCCN)NC(=O)[C@@H](Cc2c[nH]c3ccccc23)NC(=O)[C@H](Cc2ccccc2)NC(=O)[C@H](Cc2ccccc2)NC(=O)[C@H](CC(N)=O)NC(=O)[C@H](CCCCN)NC1=O [[^111In]AT2S, metal not drawn]", "readout number": 3.06}

====

test: Biodistribution in AR4-2J tumor-bearing mice; type: in vivo; settings: female, mouse, iv, 10 pmol, total radioactivity; AR4-2J tumor SCID mice, 1 h pi; mean ± SD; read-out: Tumor uptake

{"compound": "C[C@H](NC(=O)CN1CCN(CC(=O)O)CCN(CC(=O)O)CCN(CC(=O)O)CC1)C(=O)NCC(=O)N[C@H]1CSSC[C@@H](C(=O)O)NC(=O)[C@H](CO)NC(=O)[C@H]([C@@H](C)O)NC(=O)[C@H](Cc2ccccc2)NC(=O)[C@H]([C@@H](C)O)NC(=O)[C@H](CCCCN)NC(=O)[C@@H](Cc2c[nH]c3ccccc23)NC(=O)[C@H](Cc2ccccc2)NC(=O)[C@H](Cc2ccccc2)NC(=O)[C@H](CC(N)=O)NC(=O)[C@H](CCCCN)NC1=O [[^111In]AT2S, metal not drawn]", "tissue uptake at 1 h": "3.05 %ID/g"}

====

assay: Biodistribution in healthy mice; type: in vivo; conditions: male, mouse, pancreas, iv, total radioactivity; healthy Swiss albino mice, 4 h pi + excess Tate (50 nmol); read-out: Pancreas uptake, sst2 blockade
test readout: tissue uptake at 4 h (%ID/g)

{"compound": "C[C@H](NC(=O)CN1CCN(CC(=O)O)CCN(CC(=O)O)CCN(CC(=O)O)CC1)C(=O)NCC(=O)N[C@H]1CSSC[C@@H](C(=O)O)NC(=O)[C@H](CO)NC(=O)[C@H]([C@@H](C)O)NC(=O)[C@H](Cc2ccccc2)NC(=O)[C@H]([C@@H](C)O)NC(=O)[C@H](CCCCN)NC(=O)[C@@H](Cc2c[nH]c3ccccc23)NC(=O)[C@H](Cc2ccccc2)NC(=O)[C@H](Cc2ccccc2)NC(=O)[C@H](CC(N)=O)NC(=O)[C@H](CCCCN)NC1=O [[^111In]AT2S, metal not drawn]", "readout number": 0.17}

====

assay: Biodistribution in HEK293-hsst3+ tumor-bearing mice; type: in vivo; settings: mouse, muscle, iv, 10 pmol total peptide, total radioactivity; HEK293-hsst3+ tumor SCID mice, 4 h pi; mean ± SD; read-out: Muscle uptake

{"compound": "C[C@H](NC(=O)CN1CCN(CC(=O)O)CCN(CC(=O)O)CCN(CC(=O)O)CC1)C(=O)NCC(=O)N[C@H]1CSSC[C@@H](C(=O)O)NC(=O)[C@H](CO)NC(=O)[C@H]([C@@H](C)O)NC(=O)[C@H](Cc2ccccc2)NC(=O)[C@H]([C@@H](C)O)NC(=O)[C@H](CCCCN)NC(=O)[C@@H](Cc2c[nH]c3ccccc23)NC(=O)[C@H](Cc2ccccc2)NC(=O)[C@H](Cc2ccccc2)NC(=O)[C@H](CC(N)=O)NC(=O)[C@H](CCCCN)NC1=O [[^111In]AT2S, metal not drawn]", "unit abbreviation": "%ID/g", "tissue uptake at 4 h": 0.06}
